Hey, just so you know, these numbers are from patent US8003660B2.

# Assay System: M4 muscarinic receptor (Homo sapiens)
# Construct: expressed in transfected cells; host or cells: CHO (M4-CHO)
# Sequence (P08173 whole entry): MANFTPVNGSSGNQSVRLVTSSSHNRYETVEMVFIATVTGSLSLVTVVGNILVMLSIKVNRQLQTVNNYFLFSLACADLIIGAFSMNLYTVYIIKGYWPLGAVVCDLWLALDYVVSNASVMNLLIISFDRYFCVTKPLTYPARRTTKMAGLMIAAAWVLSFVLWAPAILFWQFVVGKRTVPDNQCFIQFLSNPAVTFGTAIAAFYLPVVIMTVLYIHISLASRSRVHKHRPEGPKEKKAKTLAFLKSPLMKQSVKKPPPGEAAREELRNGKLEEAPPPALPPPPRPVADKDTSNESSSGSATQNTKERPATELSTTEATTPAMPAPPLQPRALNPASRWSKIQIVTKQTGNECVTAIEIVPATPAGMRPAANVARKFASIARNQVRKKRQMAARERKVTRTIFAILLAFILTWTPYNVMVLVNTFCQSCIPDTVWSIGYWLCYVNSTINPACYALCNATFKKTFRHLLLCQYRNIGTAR
# Assay Info: Functional mobilization of intracellular calcium (FLIPR) in CHO cells expressing M4
# Assay type: cell-based
# Condition Details: CHO; 100% efficacy = maximum response obtained with the Carbachol control
Listing: Emax of selected compounds

Consider the following illustrative entries.
CC(C)(C)CCN1CCC2(CC1)C[C@H](NC(=O)C1CC1)c1ccccc12 [compound 300] :: < 25%
COC(=O)CCCCCN1CCC2(CC1)C[C@H](NC(C)=O)c1ccccc12 [compound 257] :: 25 to 100%
CCOC(=O)N(C)[C@H]1CCC2(CCN(CCC(C)(C)C)CC2)c2ccccc21 [compound 199] :: 25 to 100%

Q) Quick one: give measured Emax for CC(C)(C)CCN1CCC2(CC[C@@H](NC(=O)C3CC3)c3ccc(F)cc32)CC1 [compound 214]
A) 25 to 100%

Q) Quick one: give measured Emax for CC(C)(C)CCN1CCC2(CC[C@H](NC(=O)C(F)(F)F)c3ccccc32)CC1 [compound 224]
A) 25 to 100%

###

# Assay System: M2 muscarinic receptor (Homo sapiens, UniProt P08172)
# Assay Info: Functional mobilization of intracellular calcium (FLIPR) in CHO cells expressing M2
# Condition Details: CHO cells expressing M2, FLIPR calcium
Listing: EC50 of selected compounds

Consider the following illustrative entries.
C[C@H](C(=O)N[C@H]1CCC2(CCN(CCC(C)(C)C)CC2)c2cc(F)ccc21)N1CCCC1=O :: < 2000 nM
CC(C)(C)CCN1CCC2(CCCc3ccccc32)CC1 :: 2000 to 5000 nM
CC(C)(C)CCN1CCC2(CC[C@H](NC(=O)c3cccnc3)c3ccccc32)CC1 [compound 108] :: < 2000 nM

Q) Look up and report EC50, with M2 muscarinic receptor (Homo sapiens, UniProt P08172) as system, for `CCN(C(=O)CCC(F)(F)F)[C@H]1CCC2(CCN(CCC(C)(C)C)CC2)c2ccccc21`
A) > 5000 nM

Q) Look up and report EC50, with M2 muscarinic receptor (Homo sapiens, UniProt P08172) as system, for CC(C)(C)CCN1CCC2(CC[C@@H](NC(=O)C3CCCN(C(=O)C4CC4)C3)c3ccccc32)CC1 (stereo partly drawn)
A) < 2000 nM

Q) Look up and report EC50, with M2 muscarinic receptor (Homo sapiens, UniProt P08172) as system, for CN1CC(C(=O)N[C@@H]2CCC3(CCN(CCC(C)(C)C)CC3)c3ccccc32)CC1=O (stereo partly drawn)
A) > 5000 nM

###

# Assay System: M2 muscarinic receptor (Homo sapiens, UniProt P08172)
# Sequence (P08172 1-466): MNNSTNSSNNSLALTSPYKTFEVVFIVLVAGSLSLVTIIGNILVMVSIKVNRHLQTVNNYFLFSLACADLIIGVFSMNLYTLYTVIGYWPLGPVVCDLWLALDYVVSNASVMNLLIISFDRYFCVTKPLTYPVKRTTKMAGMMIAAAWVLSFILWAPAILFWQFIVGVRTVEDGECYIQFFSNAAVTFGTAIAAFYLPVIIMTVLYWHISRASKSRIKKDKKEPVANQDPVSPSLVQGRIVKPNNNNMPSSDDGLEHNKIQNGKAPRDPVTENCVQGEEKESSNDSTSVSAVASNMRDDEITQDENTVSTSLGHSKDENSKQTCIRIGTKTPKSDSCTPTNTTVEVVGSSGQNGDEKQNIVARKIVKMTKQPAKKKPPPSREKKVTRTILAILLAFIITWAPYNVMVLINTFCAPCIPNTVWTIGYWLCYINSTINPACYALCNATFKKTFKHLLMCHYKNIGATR
# Assay Info: Functional mobilization of intracellular calcium (FLIPR) in CHO cells expressing M2
# Condition Details: CHO cells expressing M2, FLIPR calcium
pEC50: −log10 of the molar value.
Metric: pEC50

Cn1cnc(C(=O)N[C@H]2CCC3(CCN(CCC(C)(C)C)CC3)c3ccccc32)c1 :: < 5.30
CC(C)(C)CCN1CCC2(CC[C@@H](NC(=O)C3CC3)c3ccccc32)CC1 :: < 5.30
CCN(C(=O)CC1CCCC1=O)[C@H]1CCC2(CCN(CCC(C)(C)C)CC2)c2ccccc21 (stereo partly shown) :: < 5.30

Turning now to a further molecule:
Q) Quick one: give measured pEC50 for CC(C)(C)CCN1CCC2(CC1)CC(F)(F)C(O)c1ccccc12 (stereo not shown)
A) > 5.70
